# System tested: UniProt:P47898
Readout type: Ki

> print(dat)
                                   compound        result
1  NC(N)=NC(=O)c1ccc2c(c1)C(c1c(F)cc(F)cc1F)CCO2 (stereo not drawn) [Example 3-31]    3 to 30 nM
2  CSc1ccccc1C1=CCCc2ccc(C(=O)N=C(N)N)cc21 [Example 2-82]    3 to 30 nM
3  Cc1ccc(C2=CCCc3ccc(C(=O)N=C(N)N)cc32)c(C#N)c1 [Example 2-79]    3 to 30 nM
4  NC(N)=NC(=O)c1ccc2c(c1)C(c1ccccc1F)=CCC2 [Example 2-09]   0.3 to 3 nM
5  NC(N)=NC(=O)c1ccc2scc(-c3ccncc3)c2c1 [Example 3-37]  30 to 300 nM
6  NC(N)=NC(=O)c1ccc2c(c1)C(c1cc(Cl)c(F)cc1F)=CCC2 [Example 2-136]    3 to 30 nM
7  N#Cc1cc(F)ccc1C1=CCCc2ccc(C(=O)N=C(N)N)cc21 [Example 2-57]    3 to 30 nM
8  COc1cc(F)c(F)cc1C1=CCOc2ccc(C(=O)N=C(N)N)cc21 [Example 1-79]    3 to 30 nM
9  NC(N)=NC(=O)c1ccc2c(c1)C(c1c(F)cc(F)cc1F)=CCCO2 [Example 3-12]   0.3 to 3 nM

----------
Parameter Ki, tested on human 5-HT5A receptor (Homo sapiens), listed per item.
Sequence (P47898 whole entry): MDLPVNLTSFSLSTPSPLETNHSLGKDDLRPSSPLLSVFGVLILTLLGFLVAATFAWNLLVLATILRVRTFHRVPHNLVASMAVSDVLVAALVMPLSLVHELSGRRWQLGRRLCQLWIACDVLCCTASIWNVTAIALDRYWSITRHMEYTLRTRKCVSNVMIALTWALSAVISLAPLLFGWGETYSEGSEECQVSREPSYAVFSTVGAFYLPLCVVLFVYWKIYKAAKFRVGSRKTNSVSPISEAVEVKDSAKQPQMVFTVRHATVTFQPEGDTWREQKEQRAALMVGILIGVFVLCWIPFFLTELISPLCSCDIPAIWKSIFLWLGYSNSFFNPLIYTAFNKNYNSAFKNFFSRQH
Readout type: Ki

> print(dat)
                                   molecule        result
1  NC(N)=NC(=O)c1ccc2c(c1)C(c1ccc(Cl)cc1Cl)=CCO2 [Example 1-51]   0.3 to 3 nM
2  COc1ccc(C2=CCCc3ccc(C(=O)N=C(N)N)cc32)cc1C#N [Example 2-78]    3 to 30 nM
3  NC(N)=NC(=O)c1ccc2c(c1)C(c1ccnc(Cl)c1)=CCC2 [Example 2-174]    3 to 30 nM
4  COc1ccc(C#N)cc1C1=CCCc2ccc(C(=O)N=C(N)N)cc21 [Example 2-61]    3 to 30 nM
5  NC(N)=NC(=O)c1ccc2c(c1)C(c1ccc(C(F)(F)F)cc1C(F)(F)F)=CCC2 [Example 2-117]  30 to 300 nM
6  COc1ccc(-c2csc3ccc(C(=O)N=C(N)N)cc23)c(OC)c1 [Example 3-20]    3 to 30 nM
7  NC(N)=NC(=O)c1ccc2c(c1)C(c1ccc([N+](=O)[O-])cc1)=CCC2 [Example 2-48]   0.3 to 3 nM

----------
The compounds below have reported Ki for human 5-HT5A receptor (Homo sapiens, UniProt P47898).
Readout type: Ki

> print(dat)
                                    compound                             system.tested  readout.type              result
 1  NC(N)=NC(=O)c1ccc2c(c1)C(c1ccccc1CO)=CCC2  human 5-HT5A receptor (Homo sapiens, UniProt P47898)            Ki      0.03 to 0.3 µM
 2  N#Cc1ccc(C2=CCCOc3ccc(C(=O)N=C(N)N)cc32)cc1  human 5-HT5A receptor (Homo sapiens, UniProt P47898)            Ki    0.003 to 0.03 µM
 3  CC1(C)C=C(c2ccc(F)cc2)c2cc(C(=O)N=C(N)N)ccc2O1  human 5-HT5A receptor (Homo sapiens, UniProt P47898)            Ki      0.03 to 0.3 µM
 4  CC(C)Oc1ccc(C2=CCCc3ccc(C(=O)N=C(N)N)cc32)cc1  human 5-HT5A receptor (Homo sapiens, UniProt P47898)            Ki      0.03 to 0.3 µM
 5  CC1C=C(c2cccs2)c2cc(C(=O)N=C(N)N)ccc2O1 (stereo not drawn)  human 5-HT5A receptor (Homo sapiens, UniProt P47898)            Ki    0.003 to 0.03 µM
 6   Cn1cc(C2=CCCc3ccc(C(=O)N=C(N)N)cc32)cn1  human 5-HT5A receptor (Homo sapiens, UniProt P47898)            Ki      0.03 to 0.3 µM
 7  COc1ccc(C2=CCCc3ccc(C(=O)N=C(N)N)cc32)c(C#N)c1  human 5-HT5A receptor (Homo sapiens, UniProt P47898)            Ki      0.03 to 0.3 µM
 8  Cc1cc(Cl)ccc1C1=CCCc2ccc(C(=O)N=C(N)N)cc21  human 5-HT5A receptor (Homo sapiens, UniProt P47898)            Ki  0.0003 to 0.003 µM
 9  NC(N)=NC(=O)c1ccc2c(c1)C(c1cc(F)ccc1Cl)=CCO2  human 5-HT5A receptor (Homo sapiens, UniProt P47898)            Ki  0.0003 to 0.003 µM
10  N#CCc1ccccc1C1=CCCc2ccc(C(=O)N=C(N)N)cc21  human 5-HT5A receptor (Homo sapiens, UniProt P47898)            Ki      0.03 to 0.3 µM
11  NC(N)=NC(=O)c1ccc2c(c1)C(c1cccc3c1OCCO3)=CCC2  human 5-HT5A receptor (Homo sapiens, UniProt P47898)            Ki      0.03 to 0.3 µM
12  Cc1ccc(C2=CCOc3ccc(C(=O)N=C(N)N)cc32)c(F)c1  human 5-HT5A receptor (Homo sapiens, UniProt P47898)            Ki  0.0003 to 0.003 µM

Hello, the source for this data is patent US20110207729A1, in case you need it.
